// data source = patent US8242280B2

- System Tested: Ba/F3 cells, ABL1 T315I (Homo sapiens, UniProt P00519, T315I, cells depend on it)
- Assay Overview: 96-well XTT cell survival assay, Ba/F3 ABL1 T315I
- Assay type: cell-based
- Condition Label: 72 hours, read-out: ABL1 T315I XTT [Ba/F3] IC50
# GI50 annotations

Worked examples, 2 compounds total:
> print(dat)
                                   compound     result
1  CN(C)C(=O)C(O)c1cncc(-c2cnc3[nH]cc(-c4cncnc4)c3c2)c1 (stereo not drawn)  > 1000 nM
2  COc1ccccc1-c1n[nH]c2ncc(-c3cccc(C(C)(O)C(=O)N(C)CCN(C)C)c3)cc12 (stereo not drawn)  > 1000 nM

Now consider the entry below.
For the compound COc1ccccc1-c1c[nH]c2ncc(-c3cncc(C(O)C(=O)N(C)C)c3)cc12 (stereo not drawn) , give its reported GI50.
< 1000 nM

---

- System Tested: Ba/F3 cells, ABL1 T315I (Homo sapiens, UniProt P00519, T315I, cells depend on it)
- Assay Overview: 96-well XTT cell survival assay, Ba/F3 ABL1 T315I
- Format: cell-based
- Condition Label: 72 hours, read-out: ABL1 T315I XTT [Ba/F3] IC50
- Method: MV4-11 and THP cells were maintained in Iscove's Modified Dulbecco's Medium supplemented with 10% fetal bovine serum (FBS) and penicillin/streptomycin, Ba/F3 cells were maintained in RPMI 1640 supplemented with 10% FBS, penicillin/streptomycin and 5 ng/ml recombinant mouse IL-3. Compounds were tested in the following assays in duplicate. […]
# key: entry, value: GI50

Worked examples, 2 compounds total:
> print(dat)
                                   compound                             system.tested  result
1  CNC(C(=O)N(C)C(C)C)c1cccc(-c2cnc3[nH]nc(-c4ccccc4OC)c3c2)c1 (stereo not drawn)  Ba/F3 cells, ABL1 T315I (Homo sapiens, UniProt P00519, T315I, cells depend on it)  > 1 µM
2  COc1ccccc1-c1c[nH]c2ncc(-c3cc(C(O)C(=O)N(C)C)ncn3)cc12 (stereo not drawn)  Ba/F3 cells, ABL1 T315I (Homo sapiens, UniProt P00519, T315I, cells depend on it)  > 1 µM

Report the value of GI50 obtained on Ba/F3 cells, ABL1 T315I (Homo sapiens, UniProt P00519, T315I, cells depend on it) for CCN(CC)CCN(CC)C(=O)C(O)c1cccc(-c2cnc3[nH]nc(-c4ccccc4OC)c3c2)c1 (stereo not drawn) .
< 1 µM

For Ba/F3 cells, ABL1 T315I (Homo sapiens, UniProt P00519, T315I, cells depend on it), give GI50 of the listed compound: `COc1ccccc1-c1n[nH]c2ncc(-c3cccc(C(=O)C(=O)N(C)C)c3)cc12`
> 1 µM

Report value only: GI50, Ba/F3 cells, ABL1 T315I (Homo sapiens, UniProt P00519, T315I, cells depend on it), COc1ccccc1-c1n[nH]c2ncc(-c3cccc(C(C)C(=O)N4CCC(O)C4)c3)cc12 (stereo not drawn)
> 1 µM

Report GI50 from Ba/F3 cells, ABL1 T315I (Homo sapiens, UniProt P00519, T315I, cells depend on it) testing of COC[C@H]1CCCN1C(=O)C(O)c1cccc(-c2cnc3[nH]nc(-c4ccccc4OC)c3c2)c1 (stereo partly drawn)
> 1 µM

Provide GI50, system Ba/F3 cells, ABL1 T315I (Homo sapiens, UniProt P00519, T315I, cells depend on it), entry COc1ccccc1-c1n[nH]c2ncc(-c3cccc(C(O)C(=O)N(C)CCC#N)c3)cc12 (stereo not drawn)
< 1 µM

Lab note: record GI50 of `COc1ccccc1-c1n[nH]c2ncc(-c3cccc([C@H](O)[C@H](O)C(C)C)c3)cc12` tested on Ba/F3 cells, ABL1 T315I (Homo sapiens, UniProt P00519, T315I, cells depend on it).
< 1 µM

Report value: GI50, system: Ba/F3 cells, ABL1 T315I (Homo sapiens, UniProt P00519, T315I, cells depend on it), compound: CN(C)C(=O)C(O)c1cncc(-c2cnc3[nH]cc(-c4ccnn4CC(F)(F)F)c3c2)c1 (stereo not drawn)
> 1 µM
